Data provenance: patent US20150344457A1

target_system: PRMT5/MEP50 (Homo sapiens, UniProt O14744)
Construct: Expressed full-length human Flag-PRMT5/6His-MeP50 protein complex was purified; made in house; host or cells: Spodoptera frugiperda (SF9) insect cells, baculovirus (pDEST8)
Sequence (O14744 with tags, fused parts or gaps): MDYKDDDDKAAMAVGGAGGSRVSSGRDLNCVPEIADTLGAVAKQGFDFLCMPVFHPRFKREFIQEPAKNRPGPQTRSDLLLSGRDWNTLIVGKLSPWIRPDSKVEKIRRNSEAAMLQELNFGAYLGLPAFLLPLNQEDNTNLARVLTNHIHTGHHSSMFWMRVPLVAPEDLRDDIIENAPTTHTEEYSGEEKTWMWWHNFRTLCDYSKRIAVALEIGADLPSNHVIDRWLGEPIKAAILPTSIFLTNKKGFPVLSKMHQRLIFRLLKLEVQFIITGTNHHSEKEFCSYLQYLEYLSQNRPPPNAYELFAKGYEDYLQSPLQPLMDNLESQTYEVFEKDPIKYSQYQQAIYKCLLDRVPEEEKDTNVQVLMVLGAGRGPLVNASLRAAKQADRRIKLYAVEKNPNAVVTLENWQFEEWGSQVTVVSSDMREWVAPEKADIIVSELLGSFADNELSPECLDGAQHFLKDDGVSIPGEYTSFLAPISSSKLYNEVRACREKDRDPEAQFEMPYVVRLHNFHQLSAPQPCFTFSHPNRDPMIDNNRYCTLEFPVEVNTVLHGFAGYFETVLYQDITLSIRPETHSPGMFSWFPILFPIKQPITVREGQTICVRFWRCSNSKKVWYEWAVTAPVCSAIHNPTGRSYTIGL
Sequence (Q9BQA1 with tags, fused parts or gaps partner limits assumed): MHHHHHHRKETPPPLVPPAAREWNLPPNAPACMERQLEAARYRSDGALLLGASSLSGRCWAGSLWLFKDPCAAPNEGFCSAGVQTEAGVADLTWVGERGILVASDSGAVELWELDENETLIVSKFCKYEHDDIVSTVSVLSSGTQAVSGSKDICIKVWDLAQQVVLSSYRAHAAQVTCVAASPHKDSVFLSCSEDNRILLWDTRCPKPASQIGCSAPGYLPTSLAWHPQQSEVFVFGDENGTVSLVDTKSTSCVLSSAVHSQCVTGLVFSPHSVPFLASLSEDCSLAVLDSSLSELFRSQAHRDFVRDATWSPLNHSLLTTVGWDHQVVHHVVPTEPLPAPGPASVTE
test_method_notes: PRMT5 Biochemical Assay (PRMT5/MEP50 enzyme assay on peptide substrate, 3H-SAM Flashplate)
condition_set: Table D-2; read-out: Biochemical IC50
pIC50: −log10 of the molar value.
The reader will find reported pIC50 values listed item by item below.

> print(dat)
                                   molecule  quantity.measured         value
1  Cc1nn(-c2ccccc2)c(C)c1COCC(O)CN1CCc2ccccc2C1 (centres unmarked) [Compound D28]              pIC50  5.00 to 6.00
2  OC(COc1cccc(-c2cccc(C(F)(F)F)c2)c1)CN1CCc2ccccc2C1 (centres unmarked) [Compound D87]              pIC50  5.00 to 6.00
3  CC(=O)Nc1cccc(-c2cccc(OCC(O)CN3CCc4ccccc4C3)c2)c1 (centres unmarked) [Compound D169]              pIC50  6.00 to 7.00
4  Cc1ncc2ccc(-c3cccc(OCC(O)CN4CCc5ccccc5C4)c3)cn12 (centres unmarked) [Compound D266]              pIC50        > 7.00
5  OC(COc1cccc(-c2ccc3nn[nH]c3c2)c1)CN1CCc2ccccc2C1 (centres unmarked) [Compound D84]              pIC50  6.00 to 7.00
6  O=C(Nc1cccc(OCC(O)CN2CCc3ccccc3C2)c1)c1cccnn1 (centres unmarked) [Compound D164]              pIC50  5.00 to 6.00
7  OC(COc1cccc(-c2ccc3ncn(Cc4ccccc4)c3c2)c1)CN1CCc2ccccc2C1 (centres unmarked) [Compound D105]              pIC50        > 7.00

Consider the record given below.
(Q) Recorded pIC50 of OC(COCc1ccc(Cl)cc1Cl)CN1CCc2ccccc2C1 (centres unmarked) [Compound D281] , please.
(A) 5.00 to 6.00
